Measured Sugar yield values are reported for all entries that follow.
System: Egri leanyka vine variety
experiment: Berry yield and sugar content of vine, Egri leanyka (Example 33)
Format: in vivo
assay conditions: control 18.93
Provide the reading as a plain figure in q/ha.

Example results:
- compound: "N=C(N)N.N=C(N)N.Oc1nnc(O)c2ccccc12"
  Sugar yield (q/ha): 15.65
- compound: "O=C(O)c1ccccc1C(=O)Nc1ccccc1"
  Sugar yield (q/ha): 20.81
- compound: "CCC[n+]1c[nH]c2ccccc21.[Br-] [N--(n-Propyl)-benzimidazolium bromide, N-(n-propyl)-benzimidazolium bromide]"
  Sugar yield (q/ha): 22.16
- compound: "C[N+](C)(C)CCCl.[Cl-] [CCC, 2-chloroethyltrimethyl-ammonium chloride]"
  Sugar yield (q/ha): 18.44

Here's the next entry for you.
Request: Give Sugar yield for "O=P(O)(O)CCCl" tested on Egri leanyka vine variety.
Result: 19.38
